Origin of measurements: ChEMBL document CHEMBL3352441

Assay: Inhibition of Enterobacter cloacae ARC3525 beta-lactamase P99 using nitrocefin substrate by enzymatic turnover assay
pIC50: −log10 of the molar value.
Assay metric: pIC50

| Compound | pIC50 |
| --- | --- |
| COc1cccc(/C=C2/C(=O)N3C(C(=O)[O-])=C(C(C)(C)C)OC23)c1.[Na+] (stereo not given) | 8.30 |
| COc1ccc(/C=C2/C(=O)N3C(C(=O)[O-])=C(C(C)(C)C)OC23)cc1.[Na+] (stereo not given) | 8.70 |
| CC(C)(C)C1=C(C(=O)[O-])N2C(=O)/C(=C/c3ccco3)C2O1.[Na+] (racemic) | 7.66 |

[1] CC(C)(C)C1=C(C(=O)[O-])N2C(=O)/C(=C\c3ccoc3)C2O1.[Na+] (stereo not given)
[2] CC(C)(C)C1=C(C(=O)[O-])N2C(=O)/C(=C/c3ccoc3)C2O1.[Na+] (stereo not given)
[3] COc1ccccc1/C=C1/C(=O)N2C(C(=O)[O-])=C(C(C)(C)C)OC12.[Na+] (stereo not given)
[4] CC(C)(C)C1=C(C(=O)[O-])N2C(=O)/C(=C\c3ccccc3)C2O1.[Na+] (stereo not given)
Q: Rank items: key pIC50, increasing. Write the labels out in the order the request specifies.
A: 2, 1, 4, 3
(2: 5.39, 1: 5.80, 4: 6.60, 3: 8.40)

[1] CC(C)(C)C1=C(C(=O)[O-])N2C(=O)/C(=C/c3ccccc3)C2O1.[Na+] (stereo not given)
[2] CC(C)(C)C1=C(C(=O)[O-])N2C(=O)CC2O1.[Na+] (stereo not given)
Q: Form field 'greater pIC50' accepts 1 or 2 ; which applies? When you have decided, please share the label of that item.
A: 1

###

Assay: Inhibition of beta-lactamase TEM1 (unknown origin) using nitrocefin substrate by enzymatic turnover assay
Assay metric: IC50 (nM)

Recorded results for 2 compounds are shown here.
| Compound | Result |
| --- | --- |
| CC(C)(C)C1=C(C(=O)[O-])N2C(=O)/C(=C\c3ccccc3)C2O1.[Na+] (stereo not given) | 2900 |
| COc1cccc(/C=C2/C(=O)N3C(C(=O)[O-])=C(C(C)(C)C)OC23)c1.[Na+] (stereo not given) | 56 |

[a] CC(C)(C)C1=C(C(=O)[O-])N2C(=O)/C(=C/c3ccoc3)C2O1.[Na+] (stereo not given)
[b] CC(C)(C)C1=C(C(=O)[O-])N2C(=O)/C(=C/c3ccco3)C2O1.[Na+] (racemic)
[c] CC(C)(C)C1=C(C(=O)[O-])N2C(=O)CC2O1.[Na+] (stereo not given)
Q: Write the entries in order, lowest recorded IC50 first. # output: labels, in the requested order
A: b, a, c
(b: 2 nM, a: 3 nM, c: 7900 nM)

###

Experiment: Inhibition of beta-lactamase OXA-24/40 (unknown origin) using nitrocefin substrate by enzymatic turnover assay
Assay metric: IC50 (nM)

Examples with answers:
| Compound | Assay metric | Result |
| --- | --- | --- |
| CC(C)(C)C1=C(C(=O)[O-])N2C(=O)/C(=C/c3ccco3)C2O1.[Na+] (racemic) | IC50 | 10 |
| CC(C)(C)C1=C(C(=O)[O-])N2C(=O)CC2O1.[Na+] (stereo not given) | IC50 | 1700 |
| COc1ccccc1/C=C1/C(=O)N2C(C(=O)[O-])=C(C(C)(C)C)OC12.[Na+] (stereo not given) | IC50 | 190 |
| COc1ccc(/C=C2/C(=O)N3C(C(=O)[O-])=C(C(C)(C)C)OC23)cc1.[Na+] (stereo not given) | IC50 | 55 |
| CC(C)(C)C1=C(C(=O)[O-])N2C(=O)/C(=C\c3ccoc3)C2O1.[Na+] (stereo not given) | IC50 | 790 |

[A] COc1cccc(/C=C2/C(=O)N3C(C(=O)[O-])=C(C(C)(C)C)OC23)c1.[Na+] (stereo not given)
[B] CC(C)(C)C1=C(C(=O)[O-])N2C(=O)/C(=C\c3ccccc3)C2O1.[Na+] (stereo not given)
[C] CC(C)(C)C1=C(C(=O)[O-])N2C(=O)/C(=C/c3ccccc3)C2O1.[Na+] (stereo not given)
[D] CC(C)(C)C1=C(C(=O)[O-])N2C(=O)/C(=C/c3ccoc3)C2O1.[Na+] (stereo not given)
Q: Arrange by IC50, high to low. Please express your ranking as an ordered list of the labels.
A: B, A, C, D
(B: 8600 nM, A: 390 nM, C: 260 nM, D: 3 nM)

###

Assay: Inhibition of beta-lactamase KPC-2 (unknown origin) using nitrocefin substrate by enzymatic turnover assay
pIC50: −log10 of the molar value.
Assay metric: pIC50

Past entries and their recorded results:
| Compound | pIC50 |
| --- | --- |
| CC(C)(C)C1=C(C(=O)[O-])N2C(=O)/C(=C\c3ccccc3)C2O1.[Na+] (stereo not given) | 5.70 |
| CC(C)(C)C1=C(C(=O)[O-])N2C(=O)/C(=C/c3ccccc3)C2O1.[Na+] (stereo not given) | 4.54 |
| CC(C)(C)C1=C(C(=O)[O-])N2C(=O)/C(=C/c3ccoc3)C2O1.[Na+] (stereo not given) | 6.51 |
| COc1ccc(/C=C2/C(=O)N3C(C(=O)[O-])=C(C(C)(C)C)OC23)cc1.[Na+] (stereo not given) | 5.05 |

[A] COc1ccccc1/C=C1/C(=O)N2C(C(=O)[O-])=C(C(C)(C)C)OC12.[Na+] (stereo not given)
[B] COc1cccc(/C=C2/C(=O)N3C(C(=O)[O-])=C(C(C)(C)C)OC23)c1.[Na+] (stereo not given)
[C] CC(C)(C)C1=C(C(=O)[O-])N2C(=O)/C(=C\c3ccoc3)C2O1.[Na+] (stereo not given)
[D] CC(C)(C)C1=C(C(=O)[O-])N2C(=O)/C(=C/c3ccco3)C2O1.[Na+] (racemic)
Q: Order by pIC50, ascending. Please list each label once, in the requested order.
A: B, A, C, D
(B: 4.36, A: 5.11, C: 6.96, D: 7.24)

###

Test: Inhibition of beta-lactamase CTX M-15 (unknown origin) using nitrocefin substrate by enzymatic turnover assay
Assay metric: IC50 (nM)

| Compound | Reading unit | IC50 |
| --- | --- | --- |
| COc1ccc(/C=C2/C(=O)N3C(C(=O)[O-])=C(C(C)(C)C)OC23)cc1.[Na+] (stereo not given) | nM | 7 |

[P] CC(C)(C)C1=C(C(=O)[O-])N2C(=O)/C(=C\c3ccoc3)C2O1.[Na+] (stereo not given)
[Q] O=C(O)[C@H]1/C(=C/CO)O[C@@H]2CC(=O)N21 [CLAVULANATE POTASSIUM]
Q: Of P and Q , which one carries the higher reported IC50? Write down the label attached to your selection.
A: P
(P: 450 nM, Q: 3 nM)

[1] CC(C)(C)C1=C(C(=O)[O-])N2C(=O)/C(=C/c3ccccc3)C2O1.[Na+] (stereo not given)
[2] COc1ccccc1/C=C1/C(=O)N2C(C(=O)[O-])=C(C(C)(C)C)OC12.[Na+] (stereo not given)
[3] CC(C)(C)C1=C(C(=O)[O-])N2C(=O)CC2O1.[Na+] (stereo not given)
[4] CC(C)(C)C1=C(C(=O)[O-])N2C(=O)/C(=C/c3ccoc3)C2O1.[Na+] (stereo not given)
Q: Order the 4 compounds from highest to lowest IC50. Form field (ranking): labels in requested order.
A: 3, 1, 2, 4

###

Assay: Inhibition of beta-lactamase OXA48 (unknown origin) using nitrocefin substrate by enzymatic turnover assay
Assay metric: IC50 (nM)

[A] CC(C)(C)C1=C(C(=O)[O-])N2C(=O)/C(=C\c3ccccc3)C2O1.[Na+] (stereo not given)
[B] CC(C)(C)C1=C(C(=O)[O-])N2C(=O)/C(=C/c3ccoc3)C2O1.[Na+] (stereo not given)
Q: Just curious, which one has the larger IC50 reading, A or B ? Select an item and report its label.
A: A

[I] O=C(O)[C@H]1/C(=C/CO)O[C@@H]2CC(=O)N21 [CLAVULANATE POTASSIUM]
[II] CC(C)(C)C1=C(C(=O)[O-])N2C(=O)/C(=C/c3ccco3)C2O1.[Na+] (racemic)
Q: Hi! Which is lower in terms of IC50, the first one I or the second one II ? Please indicate the selected item by its label.
A: II

###

Experiment: Photolysis of the compound assessed as half life under 825 lumens of fluorescent light for 24 hrs by UPLC/MS analysis
Type: physicochemical
Assay metric: half-life (min)

| Compound | Result |
| --- | --- |
| CC(C)(C)C1=C(C(=O)[O-])N2C(=O)/C(=C/c3ccccc3)C2O1.[Na+] (centres undefined) | 12.6 |
| CC(C)(C)C1=C(C(=O)[O-])N2C(=O)/C(=C/c3ccco3)C2O1.[Na+] (racemic) | 13.2 |

[A] COc1cccc(/C=C2/C(=O)N3C(C(=O)[O-])=C(C(C)(C)C)OC23)c1.[Na+] (centres undefined)
[B] CC(C)(C)C1=C(C(=O)[O-])N2C(=O)CC2O1.[Na+] (centres undefined)
Q: Please indicate which has the smaller reported half-life: A , or B . Please indicate the selected item by its label.
A: A
